Please respond with reported GI50 for every item in the list.
# target: Ba/F3-EGFR-D770_N771insSVD cells (Homo sapiens, UniProt P00533, DUP768-770, cells depend on it)
# Sequence (P00533 with tags, fused parts or gaps DUP768-770): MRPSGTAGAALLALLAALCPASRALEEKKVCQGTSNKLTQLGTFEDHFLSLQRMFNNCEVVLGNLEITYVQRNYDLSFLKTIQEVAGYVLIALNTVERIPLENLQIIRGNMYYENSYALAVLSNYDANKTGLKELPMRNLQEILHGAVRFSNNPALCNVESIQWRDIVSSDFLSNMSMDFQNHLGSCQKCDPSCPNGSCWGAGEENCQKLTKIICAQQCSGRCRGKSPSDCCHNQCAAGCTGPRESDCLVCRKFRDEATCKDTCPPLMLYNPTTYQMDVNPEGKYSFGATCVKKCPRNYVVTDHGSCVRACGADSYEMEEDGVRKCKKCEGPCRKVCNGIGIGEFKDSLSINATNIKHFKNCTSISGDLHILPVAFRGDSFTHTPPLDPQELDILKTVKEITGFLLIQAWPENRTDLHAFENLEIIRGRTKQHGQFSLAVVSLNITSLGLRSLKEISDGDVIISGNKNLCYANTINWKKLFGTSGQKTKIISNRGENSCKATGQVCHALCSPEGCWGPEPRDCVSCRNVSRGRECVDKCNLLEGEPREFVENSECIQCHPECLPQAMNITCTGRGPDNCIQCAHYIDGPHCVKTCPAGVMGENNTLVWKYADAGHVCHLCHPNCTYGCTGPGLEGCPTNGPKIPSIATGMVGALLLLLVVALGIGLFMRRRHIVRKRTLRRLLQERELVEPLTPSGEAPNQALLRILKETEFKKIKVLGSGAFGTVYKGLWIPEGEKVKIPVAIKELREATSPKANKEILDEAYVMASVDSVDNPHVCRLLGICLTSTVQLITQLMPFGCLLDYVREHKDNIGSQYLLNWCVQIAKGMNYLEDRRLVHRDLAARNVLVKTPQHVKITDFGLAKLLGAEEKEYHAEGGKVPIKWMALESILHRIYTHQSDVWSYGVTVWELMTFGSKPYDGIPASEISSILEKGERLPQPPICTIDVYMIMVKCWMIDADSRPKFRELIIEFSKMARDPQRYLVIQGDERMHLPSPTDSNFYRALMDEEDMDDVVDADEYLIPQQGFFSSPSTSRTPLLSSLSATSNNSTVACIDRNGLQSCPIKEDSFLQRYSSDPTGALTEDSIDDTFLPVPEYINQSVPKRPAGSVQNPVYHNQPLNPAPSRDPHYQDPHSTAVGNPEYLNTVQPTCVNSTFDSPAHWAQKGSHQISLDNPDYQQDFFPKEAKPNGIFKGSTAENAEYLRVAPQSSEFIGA
# experimental.details: Ba/F3 cell survival assay, EGFR D770_N771insSVD
# Type: cell-based
# settings: Cell Titer-Glo, 48 h, without IL-3; Table 4; read-out: BA/F3 (insSVD) IC50
State just the number; it will be interpreted in µM.

# input compound: COc1c(Cl)cccc1Nc1c(-c2ccncc2OCC2COCCO2)[nH]c2c1C(=O)NCC2C (stereo not shown) [Example 33] ; wanted: its GI50
0.0731

# input compound: C[C@@H]1Cc2[nH]c(-c3ccncc3OC[C@@H]3CCCO3)c(Nc3cccc(F)c3CC(F)F)c2C(=O)N1 [Example 63] ; wanted: its GI50
0.117

# input compound: COc1c(Cl)cccc1Nc1c(-c2ccncc2OCC2COCCO2)[nH]c2c1C(=O)N[C@@H]1CCC[C@H]21 (single isomer, unassigned) [Example 54] ; wanted: its GI50
0.0424

# input compound: COc1c(Cl)cccc1Nc1c(-c2ccncc2OCC2CCCCO2)[nH]c2c1C(=O)NCC2C (stereo not shown) [Example 44] ; wanted: its GI50
0.0405

# input compound: COc1c(Cl)cccc1Nc1c(-c2ccncc2OC[C@@H]2CCCO2)[nH]c2c1C(=O)NC1(CC1)C2 [Example 113] ; wanted: its GI50
0.0237

# input compound: COc1c(Cl)cccc1Nc1c(-c2ccncc2OC[C@@H]2CN(C)CCO2)[nH]c2c1C(=O)N[C@H](C)C2 [Example 11] ; wanted: its GI50
0.0178

# input compound: COC(C)(C)COc1cnccc1-c1[nH]c2c(c1Nc1cccc(F)c1CC(F)F)C(=O)N[C@H](C)C2 [Example 65] ; wanted: its GI50
0.072

# input compound: Cc1c(Cl)cccc1Nc1c(-c2ccncc2OCC2CCCCO2)[nH]c2c1C(=O)NCC2C (single isomer, unassigned) [Example 119] ; wanted: its GI50
0.0547

# input compound: COc1c(Cl)cccc1Nc1c(-c2ccncc2OCC2OCCCC2(F)F)[nH]c2c1C(=O)N[C@H](C)C2 (single isomer, unassigned) [Example 76] ; wanted: its GI50
0.177

# input compound: Cc1c(Cl)cccc1Nc1c(-c2ccncc2OCC2CCCCO2)[nH]c2c1C(=O)NCC2C (single isomer, unassigned) [Example 118] ; wanted: its GI50
0.0223

# input compound: Cc1c(Cl)cccc1Nc1c(-c2ccncc2OC[C@@H]2CCCO2)[nH]c2c1C(=O)NCC2C (mixture of isomers) [Example 58] ; wanted: its GI50
0.0729

# input compound: COc1c(Cl)cccc1Nc1c(-c2ccncc2OC[C@@H]2COCCN2C)[nH]c2c1C(=O)NCC2CCO (single isomer, unassigned) [Example 116] ; wanted: its GI50
0.169

# input compound: COc1c(Cl)cccc1Nc1c(-c2ccncc2OCC2COC(C)(C)CO2)[nH]c2c1C(=O)NCC2C (single isomer, unassigned) [Example 96] ; wanted: its GI50
0.381
